Where do the numbers come from? From ChEMBL document CHEMBL5223110.

# tested-system: Glutaminase kidney isoform, mitochondrial (Homo sapiens)
# Sequence (O94925 whole entry, canonical isoform): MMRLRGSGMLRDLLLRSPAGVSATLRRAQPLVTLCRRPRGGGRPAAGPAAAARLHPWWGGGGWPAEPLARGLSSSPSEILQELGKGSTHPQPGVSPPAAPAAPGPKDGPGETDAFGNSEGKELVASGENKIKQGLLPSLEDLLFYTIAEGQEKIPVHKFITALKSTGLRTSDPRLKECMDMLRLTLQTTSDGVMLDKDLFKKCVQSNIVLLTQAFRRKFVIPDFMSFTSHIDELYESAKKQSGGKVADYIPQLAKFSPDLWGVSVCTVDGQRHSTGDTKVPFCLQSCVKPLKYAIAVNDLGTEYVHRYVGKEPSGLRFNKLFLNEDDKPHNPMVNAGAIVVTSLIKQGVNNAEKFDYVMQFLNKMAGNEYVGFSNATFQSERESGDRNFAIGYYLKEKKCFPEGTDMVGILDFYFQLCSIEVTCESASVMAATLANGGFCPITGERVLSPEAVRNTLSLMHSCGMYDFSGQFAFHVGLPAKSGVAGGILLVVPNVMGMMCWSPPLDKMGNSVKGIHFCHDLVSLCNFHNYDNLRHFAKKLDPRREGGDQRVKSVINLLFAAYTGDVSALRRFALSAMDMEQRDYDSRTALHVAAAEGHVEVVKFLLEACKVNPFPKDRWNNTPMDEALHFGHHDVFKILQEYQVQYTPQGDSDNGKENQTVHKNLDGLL
# assay: Inhibition of GLS1 (unknown origin)
Quick list: IC50 per entry.

These recorded examples may help you get a feel for the data.
[
  {
    "compound": "O=C1Cc2cccc(c2)OCCOCCOCCOCCOc2cccc(c2)CC(=O)NC2=NN=C(CCCCC3=NN=C(N1)S3)S2",
    "IC50": "4 µM"
  },
  {
    "compound": "O=C1Cc2cccc(c2)OCCOCCOc2cccc(c2)CC(=O)NC2=NN=C(CCCCCC3=NN=C(N1)S3)S2",
    "IC50": "10 µM"
  },
  {
    "compound": "O=C1Cc2cccc(c2)OCCOc2cccc(c2)CC(=O)Nc2ccc(nn2)CCCCc2ccc(nn2)N1",
    "IC50": "0.18 µM"
  },
  {
    "compound": "O=C1Cc2cccc(c2)OCCCCCOc2cccc(c2)CC(=O)Nc2nnc(s2)CCCCc2ccc(nn2)N1",
    "IC50": "1 µM"
  }
]

Input: Provide measured IC50 value, entry: O=C1Cc2ccc(cc2)OCCOCCOCCOc2cccc(c2)CC(=O)Nc2nnc(s2)CCCCc2nnc(s2)N1
Output: 3 µM
